ASSAYED SYSTEM: BCL6-3C BTB domain (human BCL6 residues 5-129 with C8Q/C67R/C84N) (human), P41182
TEST DETAILS: ITC in solution, 25° C; ITC in solution, not SPR
EXPERIMENTAL SETUP: remark: other sources report otherwise
READOUT TYPE: pKd
Numbers only, as −log10 of the molar value.

Please give measured pKd of the following entry: LVATVKEAGRSIHEIPR [SMRT^1414-1430 peptide (SMRT-BBD), no additional N-terminal residues]
4.94
